IC50 for assorted molecules
TARGET_OF_ASSAY: intracellular GCN2 (phosphorylation of the GCN2 substrate eIF2α) (Homo sapiens)
PROTOCOL_DETAILS: GCN2 cellular inhibition assay (AlphaScreen SureFire P-eIF2α Ser51, borrelidin-treated U2OS cells)
Assay type: cell-based
RECORDED_CONDITIONS: compounds of Formula IV; biomarker assay, phosphorylated eIF2α Ser51 in borrelidin-treated U2OS cells

Known results for molecules:
1) CC1CN(c2cc(Cl)nc(-c3cnc4cnc(C(F)(F)F)cn34)n2)C(C)C(c2cn[nH]c2)N1 (stereo not drawn) [IV-567]; 0.5 to 5 µM
2) FC(F)(F)c1cn2c(-c3nccc(N4CCC(c5cn[nH]c5)C4)n3)cnc2cn1 (single isomer, unassigned) [IV-540]; 0.5 to 5 µM

// query Please report the recorded IC50 for CC1C(C(N)=O)CCCN1c1ccnc(-c2cnc3cnc(C(F)F)cn23)n1 (stereo not drawn) [IV-54] .
// result 0.5 to 5 µM

// query Reported IC50 for Cc1cc(N2CC(C)NC(c3cn[nH]c3)C2C)nc(-c2cnc3cnc(C(F)(F)F)cn23)n1 (single isomer, unassigned) [IV-669] : what is it?
// result > 5 µM

// query Name the reported IC50 value associated with the molecule CS(=O)(=O)NC[C@@H]1CN(c2nc(-c3cnc4cnc(C(F)F)cn34)ns2)CCO1 [IV-703]
// result > 5 µM

// query Which IC50 value is on record for CC1C(c2c[nH]cn2)CCCN1c1ccnc(-c2cnc3cnc(C(F)(F)F)cn23)n1 (stereo not drawn) [IV-389] ?
// result 0.5 to 5 µM

// query Report IC50 for CC1CC(CS(C)(=N)=O)C(C)N(c2ccnc(-c3cnc4cnc(C(F)F)cn34)n2)C1 (single isomer, unassigned) [IV-368] please.
// result > 5 µM

====

Entries annotated with measured pKi
TARGET_OF_ASSAY: GCN2 kinase (Homo sapiens, UniProt Q9P2K8)
Sequence (Q9P2K8 whole entry): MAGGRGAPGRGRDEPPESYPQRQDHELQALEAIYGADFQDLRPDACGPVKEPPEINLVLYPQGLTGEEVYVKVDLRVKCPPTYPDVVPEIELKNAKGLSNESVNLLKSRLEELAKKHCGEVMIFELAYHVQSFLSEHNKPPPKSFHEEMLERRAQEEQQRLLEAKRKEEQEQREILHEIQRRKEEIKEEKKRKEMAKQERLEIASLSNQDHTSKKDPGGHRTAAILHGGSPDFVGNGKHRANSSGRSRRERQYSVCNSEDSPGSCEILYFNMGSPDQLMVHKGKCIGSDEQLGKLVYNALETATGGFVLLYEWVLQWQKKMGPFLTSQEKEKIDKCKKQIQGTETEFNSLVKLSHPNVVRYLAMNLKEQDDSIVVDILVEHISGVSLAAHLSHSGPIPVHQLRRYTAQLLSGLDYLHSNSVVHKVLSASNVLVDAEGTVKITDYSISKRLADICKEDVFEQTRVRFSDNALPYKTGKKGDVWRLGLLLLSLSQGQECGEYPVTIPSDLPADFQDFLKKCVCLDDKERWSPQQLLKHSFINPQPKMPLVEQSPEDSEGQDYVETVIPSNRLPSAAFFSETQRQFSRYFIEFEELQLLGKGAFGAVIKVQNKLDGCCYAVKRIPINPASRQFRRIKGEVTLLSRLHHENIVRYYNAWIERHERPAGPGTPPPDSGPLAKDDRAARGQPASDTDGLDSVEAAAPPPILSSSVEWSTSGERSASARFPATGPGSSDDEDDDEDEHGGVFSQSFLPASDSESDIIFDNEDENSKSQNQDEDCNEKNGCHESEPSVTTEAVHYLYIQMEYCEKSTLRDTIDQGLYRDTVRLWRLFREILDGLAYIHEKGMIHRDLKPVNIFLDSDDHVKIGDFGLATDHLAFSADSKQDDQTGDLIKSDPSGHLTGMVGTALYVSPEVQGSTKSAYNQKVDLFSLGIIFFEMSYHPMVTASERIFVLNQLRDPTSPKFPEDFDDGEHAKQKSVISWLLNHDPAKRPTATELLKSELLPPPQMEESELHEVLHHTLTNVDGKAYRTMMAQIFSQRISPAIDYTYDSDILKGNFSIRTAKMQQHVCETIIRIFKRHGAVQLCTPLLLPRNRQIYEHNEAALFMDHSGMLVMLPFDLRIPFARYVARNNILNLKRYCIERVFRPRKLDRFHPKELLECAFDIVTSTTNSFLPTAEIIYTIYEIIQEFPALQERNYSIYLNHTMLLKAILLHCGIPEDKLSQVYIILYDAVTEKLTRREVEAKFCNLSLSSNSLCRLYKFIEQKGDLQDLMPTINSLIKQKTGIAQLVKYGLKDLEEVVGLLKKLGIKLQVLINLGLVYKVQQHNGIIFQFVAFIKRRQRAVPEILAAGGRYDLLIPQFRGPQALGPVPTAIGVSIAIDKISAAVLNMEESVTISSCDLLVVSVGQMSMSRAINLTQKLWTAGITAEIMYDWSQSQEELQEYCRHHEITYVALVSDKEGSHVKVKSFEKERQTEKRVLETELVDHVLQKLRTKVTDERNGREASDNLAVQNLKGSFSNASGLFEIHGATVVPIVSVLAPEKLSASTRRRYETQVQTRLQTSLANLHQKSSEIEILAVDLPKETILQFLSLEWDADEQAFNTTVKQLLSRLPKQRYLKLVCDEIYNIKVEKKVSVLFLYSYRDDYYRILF
PROTOCOL_DETAILS: GCN2 enzyme inhibition assay (Transcreener ADP2 fluorescence polarization)
Type: biochemical
RECORDED_CONDITIONS: Enzyme activity for compounds of Formula IV; Ki(app), 280 μM ATP, 25° C.
pKi: −log10 of the molar value.

Consider the following illustrative entries.
1. CNC(=O)C1CCCN(c2ccnc(-c3cnc4cnc(C(F)F)cn34)n2)C1 (stereo not drawn); 6.00 to 7.00
2. OC1CCCN(c2ccnc(-c3cnc4cnc(C(F)F)cn34)n2)C1 (stereo not drawn); 6.00 to 7.00
3. CC1CN(c2ccnc(-c3cnc4cnc(C(F)(F)F)cn34)n2)C(C)C(c2cnc[nH]2)N1 (single isomer, unassigned) [IV-538]; > 8.00

// query Can you share its pKi? I mean this molecule: CC1CN(c2ccnc(-c3cnc4cnc(C(F)(F)F)cn34)n2)CC(c2cn[nH]c2C(F)(F)F)N1 (single isomer, unassigned) [IV-474]
// result > 8.00

// query GET /values?readout=pKi&item= CC1CN(c2nccc(-c3cnc4cnc(C(F)(F)F)cn34)n2)C(C)C(c2cn[nH]c2)N1 (single isomer, unassigned) [IV-369]
// result > 8.00

// query Requested field: pKi. Item: O=C(C1CCCN(c2ccnc(-c3cnc4cnc(C(F)F)cn34)n2)C1)N1CCNCC1 (stereo not drawn)
// result 6.00 to 7.00

====

Quick reference for pKi among some compounds
TARGET_OF_ASSAY: GCN2 kinase (Homo sapiens, UniProt Q9P2K8)
PROTOCOL_DETAILS: GCN2 enzyme inhibition assay (Transcreener ADP2 fluorescence polarization)
Assay type: biochemical
RECORDED_CONDITIONS: compounds of Formula II; 280 μM ATP, 4 nM GCN2 kinase
pKi: −log10 of the molar value.

// worked examples, pKi included
1. CC1C(CNS(C)(=O)=O)C(C)(O)C(C)CN1c1cc(-c2cnc3ccc(C(F)F)nn23)ncn1 (stereo not drawn) [II-617]; 6.00 to 8.00
2. C[C@H]1[C@@H](CNS(C)(=O)=O)C(F)(F)[C@@H](C)CN1c1cc(-c2cnc3ccc(C(F)F)nn23)ncn1 (single isomer, unassigned); > 8.00
3. O=C1NCC2CN(c3cc(-c4cnc5ccc(C(F)F)nn45)ccn3)CCN12 (stereo not drawn) [II-172]; 6.00 to 8.00
4. CC1C(CNS(C)(=O)=O)CCCN1c1cc(-c2cnc3ccc(C(F)F)nn23)ncn1 (single isomer, unassigned) [II-265]; 6.00 to 8.00
5. CS(=N)(=O)CC1CCCN(c2cc(-c3cnc4ccc(C(F)F)nn34)ncn2)C1 (single isomer, unassigned) [II-636]; 6.00 to 8.00
6. COC1CC(CNS(C)(=O)=O)CN(c2cc(-c3cnc4ccc(C(F)F)nn34)ncn2)C1 (single isomer, unassigned) [II-233]; > 8.00
7. CN1CCN(c2cc(-c3cnc4ccc(C(F)F)nn34)ncn2)CC1C(N)=O (stereo not drawn); 6.00 to 8.00
8. CCS(C)(=O)=NC1CC(C)CN(c2cc(-c3cnc4ccc(C(F)F)nn34)ncn2)C1 (single isomer, unassigned) [II-642]; > 8.00

// query Would you kindly share the measured pKi for CS(=O)(=O)NCC1CN(c2cc(-c3cnc4ccc(C(F)F)nn34)ncn2)CC(C2CC2)O1 (stereo not drawn) [II-441] ?
// result 6.00 to 8.00

// query What does the data say about its pKi? Entry: CS(=O)(=O)NC[C@@H]1CN(c2cc(-c3cnc4ccc(C(F)(F)F)nn34)ccn2)CCO1
// result 6.00 to 8.00

// query I have this compound here, CC(=O)N1CCC(c2cc(-c3cnc4ccc(C(F)F)nn34)ncn2)C1 (stereo not drawn) , and I need its recorded pKi.
// result 6.00 to 8.00

// query Reported pKi for CC(=O)N1CCN(c2cc(-c3cnc4ccc(Cl)nn34)ccn2)CC1 : what is it?
// result 6.00 to 8.00

====

TARGET_OF_ASSAY: intracellular GCN2 (phosphorylation of the GCN2 substrate eIF2α) (Homo sapiens, UniProt Q9P2K8)
Sequence (Q9P2K8 whole entry): as above
PROTOCOL_DETAILS: GCN2 cellular inhibition assay (AlphaScreen SureFire P-eIF2α Ser51, borrelidin-treated U2OS cells)
Format: cell-based
RECORDED_CONDITIONS: compounds of Formula IV; biomarker assay, phosphorylated eIF2α Ser51 in borrelidin-treated U2OS cells
pIC50: −log10 of the molar value.
Listing of entries alongside the reported pIC50.

Check out these entries, answers already filled in.
1) Cc1nc(C2CCCN(c3ccnc(-c4cnc5cnc(Br)cn45)n3)C2)c[nH]1 (single isomer, unassigned) [IV-375]; > 6.30
2) Clc1cn2c(-c3nccc(N4CCNC(c5c[nH]cn5)C4)n3)cnc2cn1 (centres unmarked); < 5.30
3) OC1CCN(c2ccnc(-c3cnc4cnc(C(F)(F)F)cn34)n2)CC1c1cn[nH]c1 (single isomer, unassigned) [IV-623]; > 6.30

// query pIC50 for CC1CN(c2ccnc(-c3cnc4cnc(C(F)(F)F)cn34)n2)C(C)C(c2c[nH]c(C(F)(F)F)n2)N1 (single isomer, unassigned) ?
// result 5.30 to 6.30

// query Look at this compound and give its reported pIC50. CC1(C(N)=O)CCCN(c2ccnc(-c3cnc4cnc(C(F)F)cn34)n2)C1 (centres unmarked)
// result < 5.30

// query Name the reported pIC50 value associated with the compound N#Cc1cn2c(-c3nccc(N4CCOC(c5cn[nH]c5)C4)n3)cnc2cn1 (centres unmarked)
// result 5.30 to 6.30

====

TARGET_OF_ASSAY: GCN2 kinase (Homo sapiens, UniProt Q9P2K8)
PROTOCOL_DETAILS: GCN2 enzyme inhibition assay (Transcreener ADP2 fluorescence polarization)
Assay type: biochemical
RECORDED_CONDITIONS: Enzyme activity for compounds of Formula IV; Ki(app), 280 μM ATP, 25° C.
MEASURED_PARAMETER: Ki

Use these answered entries as a reference point.
1) FC(F)(F)c1cn2c(-c3nccc(N4CCC(n5ccnc5)C4)n3)cnc2cn1 (centres unmarked); 100 to 1000 nM
2) CC(NS(C)(=O)=O)C1CN(c2ccnc(-c3cnc4cnc(C(F)F)cn34)n2)CCO1 (centres unmarked) [IV-62]; 100 to 1000 nM
3) OCC1CCCCN(c2ccnc(-c3cnc4cnc(C(F)F)cn34)n2)C1 (centres unmarked); 100 to 1000 nM
4) NCC1CCN(c2ccnc(-c3cnc4cnc(C(F)(F)F)cn34)n2)CC1; 100 to 1000 nM
5) CC(=O)N1CCN(c2ccnc(-c3cnc4cnc(-c5ccc(CO)cc5)cn34)n2)CC1; 100 to 1000 nM
6) OCCN1CCN(c2ccnc(-c3cnc4cnc(C(F)(F)F)cn34)n2)CC1; 100 to 1000 nM
7) CC(=O)N1CCN(c2ccnc(-c3cnc4cnc(C5CC5)cn34)n2)CC1; 100 to 1000 nM
8) Cc1n[nH]cc1C1=CCCN(c2ccnc(-c3cnc4cnc(C(F)F)cn34)n2)C1; 10 to 100 nM
9) C=Cc1cn2c(-c3nccc(N4CCN(C(C)=O)CC4)n3)cnc2cn1; 100 to 1000 nM
10) FC(F)(F)c1cn2c(-c3nccc(N4CCOC(c5cn[nH]c5)C4)n3)cnc2cn1 (single isomer, unassigned) [IV-8]; < 10 nM

// query What Ki value was documented for this compound, FC(F)(F)c1cn2c(-c3nccc(N4CCC(C5CCOC5)C4)n3)cnc2cn1 (centres unmarked) [IV-608] ?
// result 100 to 1000 nM

// query Sample CS(=O)(=O)NCCC1CCCN(c2ccnc(-c3cnc4cnc(C(F)F)cn34)n2)C1 (centres unmarked) — what was its Ki?
// result 100 to 1000 nM

// query Requested field: Ki. Item: CC(C)(O)C1CC(c2cn[nH]c2)CN(c2ccnc(-c3cnc4cnc(C(F)(F)F)cn34)n2)C1 (single isomer, unassigned) [IV-685]
// result < 10 nM

// query Ki for CNS(=O)(=O)C1CCN(c2ccnc(-c3cnc4cnc(C(F)F)cn34)n2)C1 (centres unmarked) ?
// result 100 to 1000 nM

// query May I ask what Ki has been recorded for C[C@@H]1CN(c2ccnc(-c3cnc4cnc(C(F)(F)F)cn34)n2)C[C@H](c2ccnn2C)N1 (racemic) ?
// result 100 to 1000 nM

// query Give its Ki value. Item: NS(=O)(=O)c1ccc(C(=O)N[C@H]2CCCN(c3ccnc(-c4cnc5cnc(C(F)(F)F)cn45)n3)C2)o1
// result > 1000 nM

// query Need Ki of O=C(Nc1cn[nH]c1)[C@@H]1CCCN(c2ccnc(-c3cnc4cnc(C(F)(F)F)cn34)n2)C1 , thanks.
// result > 1000 nM

// query What does the record list as Ki for CC1CN(c2ccnc(-c3cnc4cnc(Cl)cn34)n2)CC(c2cn[nH]c2)N1 (single isomer, unassigned) [IV-213] ?
// result 10 to 100 nM

// query Quick check: Ki of FC(F)(F)c1cn2c(-c3nccc(N4CCCCCC4)n3)cnc2cn1 ?
// result 100 to 1000 nM

// query Reported Ki for NC(=O)C1CCCN(c2cccc(-c3cnc4cnc(C(F)F)cn34)n2)C1 (centres unmarked) : what is it?
// result 10 to 100 nM

// query // lookup Ki for CC1CN(c2ccnc(-c3cnc4cnc(Br)cn34)n2)C(C)C(c2c[nH]cn2)N1 (single isomer, unassigned) [IV-376]
// result < 10 nM

// query Param item = OC1CCN(c2ccnc(-c3cnc4cnc(C(F)F)cn34)n2)C1 (centres unmarked) ; retrieve measured Ki.
// result 100 to 1000 nM

// query Return reported Ki; argument: CC1(C)CN(c2ccnc(-c3cnc4cnc(C(F)(F)F)cn34)n2)CC(c2cn[nH]c2)N1 (centres unmarked)
// result 10 to 100 nM

// query GET /values?readout=Ki&item= NC(=O)C1CN(c2ccnc(-c3cnc4cnc(C(F)F)cn34)n2)CCO1 (centres unmarked)
// result 100 to 1000 nM

// query Returns the measured Ki for the input compound. Input: Fc1n[nH]cc1C1=CCCN(c2ccnc(-c3cnc4cnc(C(F)(F)F)cn34)n2)C1
// result < 10 nM

// query Entry under review: CC1CN(c2cncc(-c3cnc4cnc(C(F)(F)F)cn34)n2)C(C)C(c2cn[nH]c2)N1 (centres unmarked) [IV-577] . Reported Ki?
// result < 10 nM
